Data origin, for the record: the supplement of paper PMC13172266

The following compounds are shown together with reported cell proliferation values.
Tested on: U2932 TK216-resistant clone 3
test: cell proliferation relative to vehicle (% of vehicle); higher = less growth inhibition
assaySetup: 500 nM; 72 h
observable: cell proliferation

{"compound": "CN1CCN(c2ccc3nc(-c4c(N)c5c(F)cccc5[nH]c4=O)[nH]c3c2)CC1", "measuredTarget": "U2932 TK216-resistant clone 3", "observable": "cell proliferation", "measuredNumber": 83.3}
{"compound": "Cc1ccc([C@@H]2O[C@H](CO)[C@@H](O)[C@H](O)[C@H]2O)cc1Cc1ccc(-c2ccc(F)cc2)s1", "measuredTarget": "U2932 TK216-resistant clone 3", "observable": "cell proliferation", "measuredNumber": 104}
{"compound": "Cc1[nH]c2ccccc2c1CCNCc1ccc(/C=C/C(=O)NO)cc1", "measuredTarget": "U2932 TK216-resistant clone 3", "observable": "cell proliferation", "measuredNumber": 11.5}
{"compound": "Cn1cncc1[C@@](N)(c1ccc(Cl)cc1)c1ccc2c(c1)c(-c1cccc(Cl)c1)cc(=O)n2C", "measuredTarget": "U2932 TK216-resistant clone 3", "observable": "cell proliferation", "measuredNumber": 74.9}
{"compound": "Cc1cc(Nc2cc(N3CCN(C)CC3)nc(/C=C/c3ccccc3)n2)n[nH]1", "measuredTarget": "U2932 TK216-resistant clone 3", "observable": "cell proliferation", "measuredNumber": 48.9}
{"compound": "COc1cc2nccc(Oc3ccc(NC(=O)C4(C(=O)Nc5ccc(F)cc5)CC4)cc3)c2cc1OC [Cabozantinib malate (XL184)]", "measuredTarget": "U2932 TK216-resistant clone 3", "observable": "cell proliferation", "measuredNumber": 95.7}
{"compound": "CN(NC(=O)CC(=O)NN(C)C(=S)c1ccccc1)C(=S)c1ccccc1 [Elesclomol (STA-4783)]", "measuredTarget": "U2932 TK216-resistant clone 3", "observable": "cell proliferation", "measuredNumber": -3.67}

====

This listing pairs molecules with measured cell proliferation.
Test system: U2932 TK216-resistant clone 2
test: cell proliferation relative to vehicle (% of vehicle); higher = less growth inhibition
assaySetup: 500 nM; 72 h

{"molecule": "C[C@]1(O)C[C@@H](c2nc(-c3ccc4ccc(-c5ccccc5)nc4c3)c3c(N)nccn32)C1 [OSI-906 (Linsitinib)]", "cell proliferation": 95.1}
{"molecule": "COc1cc(Nc2ncc(F)c(Nc3ccc4c(n3)NC(=O)C(C)(C)O4)n2)cc(OC)c1OC", "cell proliferation": 97.1}
{"molecule": "Cc1[nH]c2ccccc2c1CCNCc1ccc(/C=C/C(=O)NO)cc1 [Panobinostat (LBH589)]", "cell proliferation": 4.33}
{"molecule": "COc1cc(Nc2c(C#N)cnc3cc(OCCCN4CCN(C)CC4)c(OC)cc23)c(Cl)cc1Cl [Bosutinib (SKI-606)]", "cell proliferation": 73.1}
{"molecule": "O=C(O)CC[C@H]1CC[C@@](c2cc(F)ccc2F)(S(=O)(=O)c2ccc(Cl)cc2)CC1", "cell proliferation": 109}
{"molecule": "O=C(O)C(Cc1c[nH]c2ccccc12)N1C(=O)c2ccccc2C1=O (stereo unspecified)", "cell proliferation": 102}
{"molecule": "CO[C@H]1C[C@@H]2CC[C@@H](C)[C@@](O)(O2)C(=O)C(=O)N2CCCC[C@H]2C(=O)O[C@H]([C@H](C)C[C@@H]2CC[C@@H](O)[C@H](OC)C2)CC(=O)[C@H](C)/C=C(\\C)[C@@H](O)[C@@H](OC)C(=O)[C@H](C)C[C@H](C)/C=C/C=C/C=C/1C [Rapamycin (Sirolimus)]", "cell proliferation": 62.1}
{"molecule": "CNC(=O)c1cc(Oc2ccc(NC(=O)Nc3ccc(Cl)c(C(F)(F)F)c3)cc2)ccn1 [Sorafenib]", "cell proliferation": 107}
{"molecule": "CC(C)c1onc(-c2c(Cl)cccc2Cl)c1COc1ccc(/C=C/c2cccc(C(=O)O)c2)c(Cl)c1", "cell proliferation": 112}
{"molecule": "Cc1cccc(-c2[nH]c(CNc3ccccc3F)nc2-c2ccc3ncnn3c2)n1", "cell proliferation": 102}
{"molecule": "Cc1ccc2c(=O)c3cccc(CC(=O)O)c3oc2c1C [DMXAA (Vadimezan)]", "cell proliferation": 99.3}
{"molecule": "C[C@@H]1CN(CC(=O)Nc2ccc3c(c2)Cc2cccc(-c4cc(=O)cc(N5CCOCC5)o4)c2S3)C[C@H](C)O1", "cell proliferation": 101}
{"molecule": "CCc1cncnc1N1CCN(Cc2nc3ccc(C(F)(F)F)cc3[nH]2)CC1", "cell proliferation": 101}
{"molecule": "Cn1cncc1[C@@](N)(c1ccc(Cl)cc1)c1ccc2c(c1)c(-c1cccc(Cl)c1)cc(=O)n2C [Tipifarnib]", "cell proliferation": 90.6}
{"molecule": "COc1cc2ncnc(Oc3ccc(CC(=O)Nc4cnn(C(C)C)c4)cc3)c2cc1OC", "cell proliferation": 104}
{"molecule": "O=C(CCCCCCNC(=O)c1cnc(N(c2ccccc2)c2ccccc2)nc1)NO [Rocilinostat (ACY-1215)]", "cell proliferation": 104}
